Test system: EPHA4;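 further: KINOMEscan scanMAX binding as percent activity remaining versus control; lower means stronger binding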
reported conditions: Compound Concentration (nM):1000
List of Percent Control values.
Express the result in % but write the number alone.

COc1ccc2[nH]c3c4[nH]c5ccc(OC)cc5c4c4c(c3c2c1)C(=O)NC4=O [GW296115X]	86
CCS(=O)(=O)c1ccc(OC)c(Nc2ncc(-c3cccc(F)c3)o2)c1 [GW621970X]	96
COc1cc(/C=N/Nc2ncnc3[nH]ncc23)ccc1O [GW578748X]	74
Cl.c1ccc(Cc2nc3ccc(Nc4ncnc5ccccc45)cc3[nH]2)cc1 [GR269666A]	100

Shifting focus to the molecule that follows.
Param item = `COc1ccc2cc(-c3c(-c4ccncc4)nc(-c4ccc(S(C)(=O)=O)cc4C)n3C)ccc2c1` ; retrieve measured Percent Control.
66
